Test system: Nuclear hormone receptor DAF-12 (Heterodera glycines), GAL4 fusion
PROTOCOL TEXT: H. glycines DAF-12 receptor agonists, primary screen, cell-based, luminescence, HEK293, GAL4 fusion, UAS-luciferase (AID 687014);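 note: 0% = DMSO wells and 100% = sodium butyrate wells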
ASSAY SETUP: HEK293 GAL4-hgDAF12 UAS-luciferase reporter, agonist luminescence; at 6.8 µM; hits give high values; normalized to butyrate control
Out of some 370,000 compounds screened, about 6,800 (1.8%) were called active. This is one part of a sample in which actives are shown more often than they occur.
PROPERTY NAME: activation (%)
// units = %; emit number, no label

Record excerpt, results attached:
                                   compound  reading
0                 N#Cc1ccsc1NC(=O)CN1CCCCC1    -0.08
1   Cc1cc(O)cc(O)c1C(=O)Cc1cnn(-c2ccccc2)c1    -1.43
2  COC(=O)[C@]12C[C@H](CC(=O)N3CCN(C(=O)C4CC4)CC3)C(=O)N(CCC3=CCCCC3)C1=C[C@H](C(C)C)O[C@@H]2C1CC1     1.54
3  COC(=O)C1=C(C)N(Cc2ccccc2C(F)(F)F)C(=NCc2ccc(C(F)(F)F)cc2)NC1c1ccc(F)cc1 (stereo not given)     0.87
4     CCOC(=O)c1c(NC(C)=O)sc2c(O)c(Br)ccc12     1.29

# input I would be grateful if you could share the reported activation for Cc1csc(SCC(=O)Nc2ccc(C)c(S(=O)(=O)N(C)C)c2)n1 .
# output 0.79

# input I would be grateful if you could share the reported activation for CCC(=O)c1c(CC)c2n3c1=CC[C@H]3CC(Br)C=2 (stereo not given in full) .
# output -0.81

----------
System: Nuclear hormone receptor DAF-12 (Heterodera glycines), GAL4 fusion
PROTOCOL TEXT: H. glycines DAF-12 receptor agonists, primary screen, cell-based, luminescence, HEK293, GAL4 fusion, UAS-luciferase (AID 687014);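 note: 0% = DMSO wells and 100% = sodium butyrate wells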
ASSAY SETUP: HEK293 GAL4-hgDAF12 UAS-luciferase reporter, agonist luminescence; at 6.8 µM; hits give high values; normalized to butyrate control
Hit rate of the full screen: of about 370,000 compounds, about 6,800 (1.8%) were called active. Many of the other results were omitted from the sample, so actives are more common in it than they were.
PROPERTY NAME: activation (%)
// units = %; emit number, no label

Record excerpt, results attached:
In [3]: df
Out[3]:
                                   compound  reading
0               Clc1ccc(Nc2ccc3ccccc3n2)cc1     19.3
1  CCCCNC(=O)C[C@H]1C(=O)N(Cc2ccc(OC)cc2)C2=CCCC[C@@]21C(=O)OCC    -2.38
2  Cc1cc(C(=O)CSc2nc(N)cc(=O)[nH]2)c(C)n1-c1cccc(F)c1    -3.64
3  O=C1CN(C(=O)c2ccccc2F)C(c2ccc(F)cc2)c2cc(F)ccc2N1 (stereo unspecified)    -3.72
4          CC(C)C(=O)Nc1ccc2c(c1)oc1ccccc12     12.2
5        CN(C)c1ccc(-c2nnc(-c3cccnc3)o2)cc1     10.8
6  C[C@@H](CN1C2=NC[C@@H](Cc3ccccc3)N2C[C@H]1Cc1ccc(O)cc1)NC(=O)CCC1CCCCC1      1.3
7  CCCC1(C(=O)OCC)NC(c2ccc(N(C)C)cc2)C2C(=O)N(c3ccc4c(c3)OCCO4)C(=O)C21 (stereo unspecified)     -2.1
8  Cc1nc2c(C(=O)NCc3cccs3)cnn2c(C)c1Cc1ccc(F)cc1    -1.35
9  COc1ccc(S[C@]2(C(=O)N(C)C)CC(=O)N(c3ccc(OC)cc3)[C@@H]2c2ccc(OC)cc2)cc1       -1

# input I would be grateful if you could share the reported activation for CC(C)C(=O)Nc1c(C(=O)c2ccc(F)cc2)oc2ccccc12 .
# output -0.79

# input I would be grateful if you could share the reported activation for COC(=O)[C@]12C[C@H](CC(=O)NCc3ccccc3)C(=O)N(CCC3=CCCCC3)C1=C[C@H](C(C)C)O[C@@H]2C1CC1 .
# output 2

# input I would be grateful if you could share the reported activation for O=S(=O)(c1cccs1)N1CCCc2nc(-c3ccc(Br)cc3)ccc21 .
# output -0.93

# input I would be grateful if you could share the reported activation for C=CCN1C(=O)[C@@H](CC(=O)N2CCN(C(=O)OCC)CC2)[C@]2(C(=O)OCC)CCCCC/C=C/12 .
# output -0.26

# input I would be grateful if you could share the reported activation for C=CCN1[C@@H](Cc2ccccc2)COc2cccc(N3CCSCC3)c2S1(=O)=O .
# output 3.43

# input I would be grateful if you could share the reported activation for CC(C)C(=O)Nc1oc(-c2ccccc2)cc1C#N .
# output -0.28

# input I would be grateful if you could share the reported activation for CC1(C)N=C(N)NC(Nc2ccc(Cl)cc2)=N1 .
# output -2.03

# input I would be grateful if you could share the reported activation for Cc1ccc(S(=O)(=O)NCCC(=O)Nc2cccc(S(N)(=O)=O)c2)cc1C .
# output 1.82

# input I would be grateful if you could share the reported activation for CC1(c2nnc(-c3ccncc3)o2)CC(c2cccnc2)=NO1 (stereo unspecified) .
# output 3.68

# input I would be grateful if you could share the reported activation for COc1ccc(-n2c(COc3ccccc3)nnc2SCC(=O)Nc2ccc3c(c2)OCO3)cc1 .
# output -2.9

# input I would be grateful if you could share the reported activation for COCCNC(=O)c1ccc(-n2c(SCc3cccnc3)nc3ccccc3c2=O)cc1 .
# output -1.1
